- measurement.notes: AUC (0 to 24 hrs) in fasted Wistar rat at 5 mg/kg, po
- Assay type: ADME, organism-based
- Set-up: time < 24 hr, dose 5 mg/kg, route oral
- measurement.context: plasma
property.label: AUC(0-t) at 24 h
Quick note: unit goes after the number.

Q: Let me know recorded AUC(0-t) at 24 h for COc1ccc(S(=O)(=O)n2cc(C)c3cc(Cl)cnc32)cc1NC1CCN(C)CC1 , thanks.
A: 389 ng·h/mL

---

- measurement.notes: AUC (0 to 24 hrs) in Wistar rat at 10 mg/kg, iv
- Type: ADME, organism-based
- Design: time < 24 hr, dose 10 mg/kg, route intravenous
- measurement.context: plasma
property.label: AUC(0-t) at 24 h (ng·h/mL)
# unit: ng·h/mL | format: bare number

Q: Let me know recorded AUC(0-t) at 24 h for COc1ccc(S(=O)(=O)n2cc(C)c3cc(Cl)ccc32)cc1NC1CCN(C)CC1 , thanks.
A: 2760

---

- target.entity: Sodium-dependent serotonin transporter (Homo sapiens, UniProt P31645)
- Sequence (P31645 whole entry): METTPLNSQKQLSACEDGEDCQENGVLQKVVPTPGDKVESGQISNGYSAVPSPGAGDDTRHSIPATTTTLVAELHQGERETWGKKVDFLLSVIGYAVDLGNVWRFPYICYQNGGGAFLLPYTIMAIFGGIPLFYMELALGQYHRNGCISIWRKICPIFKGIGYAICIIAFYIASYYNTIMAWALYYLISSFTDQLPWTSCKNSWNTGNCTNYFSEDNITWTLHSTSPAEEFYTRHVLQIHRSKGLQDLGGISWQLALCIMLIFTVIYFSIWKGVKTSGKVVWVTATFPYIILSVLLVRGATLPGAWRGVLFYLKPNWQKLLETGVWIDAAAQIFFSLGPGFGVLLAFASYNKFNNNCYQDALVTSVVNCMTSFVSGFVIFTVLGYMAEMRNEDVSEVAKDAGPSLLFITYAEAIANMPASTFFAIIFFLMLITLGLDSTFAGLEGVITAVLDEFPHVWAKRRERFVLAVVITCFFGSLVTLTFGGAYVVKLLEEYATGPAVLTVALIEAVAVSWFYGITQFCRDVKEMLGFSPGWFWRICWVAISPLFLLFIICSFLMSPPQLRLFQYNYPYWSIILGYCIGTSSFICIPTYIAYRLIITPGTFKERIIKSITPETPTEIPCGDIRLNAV
property.label: pKi
// pKi: -log10(molar conc.)

Q: Let me know recorded pKi for COc1ccc(S(=O)(=O)n2cc(C)c3cc(Cl)ccc32)cc1NC1CCN(C)CC1 , thanks.
A: 5.71

---

- measurement.notes: Drug metabolism in Wistar rat liver microsomes at 2.5 uM at 30 mins by LC-MS/MS analysis
- Assay type: ADME, Microsome
- measurement.context: read-out: Drug metabolism
compounds and their reported metabolised at 0.5 h, 2.5 µM
# unit: % | format: bare number

COc1ccc(S(=O)(=O)N2CCOc3ccc(Cl)cc32)cc1NC1CCN(C)CC1 : 85

Q: Let me know recorded metabolised at 0.5 h, 2.5 µM for COc1ccc(S(=O)(=O)n2cc(C)c3cc(Cl)cnc32)cc1NC1CCN(C)CC1 , thanks.
A: 76

Q: Let me know recorded metabolised at 0.5 h, 2.5 µM for COc1ccc(S(=O)(=O)n2nc(C)c3cc(Cl)ccc32)cc1NC1CCN(C)CC1.O=C(O)C(O)C(O)C(=O)O , thanks.
A: 69

Q: Let me know recorded metabolised at 0.5 h, 2.5 µM for COc1ccc(S(=O)(=O)n2cc(C)c3cc(Cl)ccc32)cc1NC1CCN(C)CC1 , thanks.
A: 40

---

molecules and their reported metabolised at 0.5 h, 2.5 µM
- measurement.notes: Drug metabolism in human liver microsomes at 2.5 uM at 30 mins by LC-MS/MS analysis
- Type: ADME, Microsome
- measurement.context: read-out: Drug metabolism
# unit: % | format: bare number

COc1ccc(S(=O)(=O)n2cc(C)c3cc(Cl)cnc32)cc1NC1CCN(C)CC1 : 72
COc1ccc(S(=O)(=O)n2cc(C)c3cc(Cl)ccc32)cc1NC1CCN(C)CC1 : 0
COc1ccc(S(=O)(=O)n2nc(C)c3cc(Cl)ccc32)cc1NC1CCN(C)CC1.O=C(O)C(O)C(O)C(=O)O : 60

Q: Let me know recorded metabolised at 0.5 h, 2.5 µM for COc1ccc(S(=O)(=O)N2CCOc3ccc(Cl)cc32)cc1NC1CCN(C)CC1 , thanks.
A: 70

---

- measurement.notes: AUC (0 to 24 hrs) in fasted Wistar rat at 10 mg/kg, po
- Type: ADME, organism-based
- Design: time < 24 hr, dose 10 mg/kg, route oral
- measurement.context: plasma
compounds and their reported AUC(0-t) at 24 h
Quick note: unit goes after the number.

Completed entries (count: 2):
COc1ccc(S(=O)(=O)N2CCOc3ccc(Cl)cc32)cc1NC1CCN(C)CC1 : 384 ng·h/mL
COc1ccc(S(=O)(=O)n2nc(C)c3cc(Cl)ccc32)cc1NC1CCN(C)CC1.O=C(O)C(O)C(O)C(=O)O : 300 ng·h/mL

Q: Let me know recorded AUC(0-t) at 24 h for COc1ccc(S(=O)(=O)n2cc(C)c3cc(Cl)ccc32)cc1NC1CCN(C)CC1 , thanks.
A: 2090 ng·h/mL
